- test_method_notes: A549 NSCLC cell proliferation inhibitors – ATP luminescence, human non-small cell lung line, primary screen (AID 371);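 further: compound exposure lasted 72 h before the ATP read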
- details: at 10 µM, stronger effect = higher value
Among all 3,300 compounds or so, about 280 (8.5%) were called active. This is one part of a sample in which actives are shown more often than they occur.
Respond with rule met for growth inhibition values of 10% and above, rule not met for values below.

- compound: "COc1ccc(/C(O)=C2/C(=O)C(=O)N(CCN3CCOCC3)C2c2ccccn2)cc1 (stereo unspecified)"
  assigned_category: "rule not met"
- compound: "CCCCc1nc(NCCN2CCOCC2)c(C#N)c2c1COC(C)(C)C2"
  assigned_category: "rule not met"
- compound: "O=C(NCCCN1CCOCC1)C1(c2ccccc2)CCOCC1"
  assigned_category: "rule not met"
- compound: "COc1ccccc1N1CCN(C(=O)c2c(C)cc(=O)oc2C)CC1"
  assigned_category: "rule not met"
- compound: "c1ccc(-c2nn3c(C4CCCCC4)nnc3s2)cc1"
  assigned_category: "rule not met"
- compound: "CN(C=C1C(=O)CC(C)(C)CC1=O)CCN1CCNCC1"
  assigned_category: "rule not met"
- compound: "COC(=O)CC1=C(C(=O)OC)C(c2ccncc2)C(C#N)=C(N)O1 (stereo unspecified)"
  assigned_category: "rule not met"
- compound: "O=C(O)CCCC(=O)Nc1ccn(-c2ccccc2)n1"
  assigned_category: "rule not met"
- compound: "Cc1[nH]nc2c1C(CCc1ccccc1)C(C#N)=C(N)O2 (stereo unspecified)"
  assigned_category: "rule not met"
- compound: "CN1CCN(CCCN2c3ccccc3Sc3ccc(C(F)(F)F)cc32)CC1"
  assigned_category: "rule met"
- compound: "CN(C)CCC=C1c2ccccc2CCc2ccccc21"
  assigned_category: "rule met"
- compound: "OCCN1CCN(CCCN2c3ccccc3Sc3ccc(C(F)(F)F)cc32)CC1"
  assigned_category: "rule met"
- compound: "CCN(CC)c1ccc(C2Nc3cccc4cccc(c34)N2)c(O)c1"
  assigned_category: "rule met"
- compound: "Cn1c[n+](C)cc1/C=N/O"
  assigned_category: "rule not met"
- compound: "Cn1c2ccccc2c2nn(-c3ccccc3)c(=O)cc21"
  assigned_category: "rule met"
- compound: "COC(=O)c1ccc(N2C(=O)CC(N3CCN(C(=O)c4ccco4)CC3)C2=O)cc1 (stereo unspecified)"
  assigned_category: "rule not met"
- compound: "COc1cccc(NC(=O)C2CC(=O)n3cnnc3S2)c1 (stereo unspecified)"
  assigned_category: "rule not met"
- compound: "CCN(CC)CCCN1C(=O)C(=O)/C(=C(/O)c2ccccc2)C1c1cc(OC)ccc1OC (stereo unspecified)"
  assigned_category: "rule not met"
- compound: "Cc1cc(N/C=C/C(=O)c2cccc3ccccc23)no1"
  assigned_category: "rule met"
- compound: "COc1ccc(OC)c(C2C(C#N)=C(N)Oc3cc(C)[nH]c(=O)c32)c1 (stereo unspecified)"
  assigned_category: "rule not met"
- compound: "CCN(CC)CCNC(=O)c1c(C)oc2cc(Br)c(OC)cc12"
  assigned_category: "rule met"
- compound: "C=CCOc1nc2c(c(=O)n(C)c(=O)n2C)n1Cc1c(Cl)cccc1Cl"
  assigned_category: "rule met"
- compound: "CC(=O)N(Cc1ccccc1)c1ccc(C(=O)O)cc1"
  assigned_category: "rule not met"
- compound: "CC1(C)Cc2c(C#N)c(N3CCN(C(=O)c4ccco4)CC3)nc(-c3ccco3)c2CS1"
  assigned_category: "rule met"
- compound: "Cc1ccc(-c2nnc(-c3ccccc3)o2)cc1Br"
  assigned_category: "rule met"
- compound: "CC1(C)Cc2c(C#N)c(N3CCN(C(=O)c4ccco4)CC3)nc(Cc3ccccc3)c2CO1"
  assigned_category: "rule met"
- compound: "CN(C)/C=C1\\N=C(c2ccc(Cl)cc2Cl)OC1=O"
  assigned_category: "rule met"
- compound: "O=C(CCCN1C(=O)c2ccccc2C1=O)N1CCC(c2ccccc2)C1 (stereo unspecified)"
  assigned_category: "rule not met"
- compound: "CNCCC=C1c2ccccc2CCc2ccccc21"
  assigned_category: "rule met"
- compound: "COc1cc2c(C(=O)N3CCN(c4ccccc4)CC3)c(C)oc2cc1Br"
  assigned_category: "rule met"
- compound: "CNS(=O)(=O)c1cccc2nsnc12"
  assigned_category: "rule not met"
- compound: "CC(C)C1C(C#N)=C(N)Oc2n[nH]c(C(C)(C)C)c21 (stereo unspecified)"
  assigned_category: "rule not met"
- compound: "CC1(C)Cc2c(C#N)c(NCCc3ccccc3)nc(-c3ccco3)c2CO1"
  assigned_category: "rule not met"
- compound: "COc1ccc(C(=O)Cn2c(N3CCCCC3)nc3c2c(=O)n(C)c(=O)n3C)cc1OC"
  assigned_category: "rule not met"
- compound: "COc1ccc(C(=O)Nc2nc(N)n(-c3ccccc3)n2)cc1OC"
  assigned_category: "rule not met"
- compound: "CCCCOc1ccc(CSC(CC(=O)O)C(=O)O)cc1 (stereo unspecified)"
  assigned_category: "rule not met"
- compound: "CCCCc1nc(NCCNC(=O)c2ccco2)c(C#N)c2c1CSC(C)(C)C2"
  assigned_category: "rule met"
- compound: "COC(=O)C(NC(=O)c1ccco1)(Nc1ccc(Br)cn1)C(F)(F)F (stereo unspecified)"
  assigned_category: "rule met"
- compound: "Cc1nnc2n(-c3ccccc3)c(=O)c3c4c(sc3n12)CC(C)CC4 (stereo unspecified)"
  assigned_category: "rule met"
- compound: "CN1CCN(CCC(=O)N2c3ccccc3Sc3ccc(Cl)cc32)CC1"
  assigned_category: "rule met"
- compound: "c1ccc(-n2c(Cc3cccnc3)nc3cnccc32)cc1"
  assigned_category: "rule not met"
- compound: "CCOC(=O)c1[nH]c2ccc(OC)cc2c1NC(=O)CN1CCN(c2ccccn2)CC1"
  assigned_category: "rule not met"
- compound: "CN1CCN(c2nc3c(c(=O)n(C)c(=O)n3C)n2Cc2cccc3ccccc23)CC1"
  assigned_category: "rule not met"
- compound: "CC1(C)Cc2c(C#N)c(N3CCN(C(=O)c4ccccc4)CC3)nc(-c3ccco3)c2CS1"
  assigned_category: "rule met"
- compound: "Cc1c(C(=O)O)c(=S)sn1CCOc1ccccc1"
  assigned_category: "rule not met"
- compound: "Cc1nc(N2CCOCC2)c(C#N)c2c1COC(C)(C)C2"
  assigned_category: "rule met"
